Study System: mouse TGR5 receptor (Mus musculus)
Construct: host or cells: HEK293-EBNA (293 c18, ATCC CRL10852)
Sequence (Q80SS6 whole entry): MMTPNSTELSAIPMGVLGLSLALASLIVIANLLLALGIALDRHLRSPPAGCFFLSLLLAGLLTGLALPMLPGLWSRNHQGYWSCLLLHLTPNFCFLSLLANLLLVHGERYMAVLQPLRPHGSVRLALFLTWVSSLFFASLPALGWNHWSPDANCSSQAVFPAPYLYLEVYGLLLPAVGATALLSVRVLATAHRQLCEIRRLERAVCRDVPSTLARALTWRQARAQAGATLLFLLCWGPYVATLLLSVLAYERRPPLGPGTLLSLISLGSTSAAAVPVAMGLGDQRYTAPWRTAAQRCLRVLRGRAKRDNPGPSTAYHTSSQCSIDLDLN
Test Method Notes: Mouse TGR5 HTRF cAMP production assay (HEK293-EBNA cells, Cisbio cAMP HiRange kit)
Type: cell-based
Measurement Context: HEK293-EBNA cells overexpressing mouse TGR5, HTRF cAMP assay
pEC50: −log10 of the molar value.
Readout Label: pEC50

Before answering, review these 2 worked examples.
Query :: Which value of pEC50 has been reported for `N=C(N)NCCNC(=O)CCCC1CCN(c2cc(N3CCC[C@H]3C(=O)NCCc3ccc(C(F)(F)F)cc3)nc(C(F)(F)F)n2)CC1` in the records?
Result :: > 7.00

Query :: Fill blank: measured pEC50 of the molecule `CS(=O)(=O)NCCNC(=O)CCCC1CCN(c2cc(N3CCC[C@H]3C(=O)NCCc3ccc(C#N)cc3)nc(C(F)(F)F)n2)CC1` is ____.
Result :: > 7.00

Further cases:
Query :: # input molecule: `N#Cc1ccc(CCNC(=O)[C@@H]2CCCN2c2cc(N3CCC(CCNC(=O)NCP(=O)(O)O)CC3)nc(C(F)(F)F)n2)cc1` ; wanted: its pEC50
Result :: > 7.00

----------
// values below are reported EC50
Study System: human TGR5 receptor (Homo sapiens)
Sequence (Q8TDU6 1-330): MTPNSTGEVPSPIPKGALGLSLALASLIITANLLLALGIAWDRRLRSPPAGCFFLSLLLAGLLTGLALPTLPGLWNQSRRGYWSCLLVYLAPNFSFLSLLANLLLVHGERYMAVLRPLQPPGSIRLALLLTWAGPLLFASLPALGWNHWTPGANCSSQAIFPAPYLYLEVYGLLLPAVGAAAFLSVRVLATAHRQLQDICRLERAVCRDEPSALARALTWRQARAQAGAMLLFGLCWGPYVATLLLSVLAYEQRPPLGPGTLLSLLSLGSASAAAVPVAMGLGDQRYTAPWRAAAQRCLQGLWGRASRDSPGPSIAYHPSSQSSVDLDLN
Test Method Notes: Human TGR5 cAMP production assay (hTGR5-CHO cells, DiscoveRx cAMP XS+ kit)
Measurement Context: luminescent cAMP assay, read-out: Human TGR5 Lum. cAMP Activity (EC50)

Query :: I would be grateful if you could share the reported EC50 for N#Cc1ccc(CCNC(=O)[C@@H]2CCCN2c2cc(N3CCC(CCCC(=O)NCCNC(=O)CS(=O)(=O)O)CC3)nc(C(F)(F)F)n2)cc1 [Compound 124] .
Result :: < 0.1 µM

Query :: // query EC50 value for entry O=C(CS(=O)(=O)O)NCCC1CCN(c2cc(N3CC[C@H]3C(=O)NCCc3ccc(C(F)(F)F)cc3)nc(C(F)(F)F)n2)CC1 [Compound 279]
Result :: < 0.1 µM

Continuing:
Query :: Which EC50 is reported for this molecule? N[C@@H](CO)C(=O)N1CCN(c2cc(N3CCC[C@@H](C(=O)NCCc4ccc(C(F)(F)F)cc4)C3)nc(C(F)(F)F)n2)CC1 [Compound 342]
Result :: 0.1 to 0.999 µM

----------
Study System: UniProt:Q8TDU6
Sequence (Q8TDU6 1-330): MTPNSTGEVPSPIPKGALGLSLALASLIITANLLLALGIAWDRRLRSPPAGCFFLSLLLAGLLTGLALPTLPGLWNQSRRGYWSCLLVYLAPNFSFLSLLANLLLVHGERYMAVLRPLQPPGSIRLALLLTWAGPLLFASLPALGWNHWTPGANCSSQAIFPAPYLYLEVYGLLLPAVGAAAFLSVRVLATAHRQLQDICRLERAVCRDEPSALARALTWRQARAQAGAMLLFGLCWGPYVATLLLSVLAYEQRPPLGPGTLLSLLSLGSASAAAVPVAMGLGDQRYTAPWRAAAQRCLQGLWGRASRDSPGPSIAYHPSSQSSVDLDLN
Test Method Notes: Human TGR5 cAMP production assay (hTGR5-CHO cells, DiscoveRx cAMP XS+ kit)
Measurement Context: luminescent cAMP assay, read-out: Human TGR5 Lum. cAMP Activity (EC50)
Readout Label: EC50

Query :: What value of EC50 has been reported for the following compound? COc1ccc(-c2cc(N3CCC[C@H]3C(=O)NCCc3ccc(C#N)cc3)nc(C(F)(F)F)n2)cc1 [Compound 148]
Result :: 100 to 999 nM

Others:
Query :: Name the reported EC50 value associated with the compound N#Cc1ccc(CCNC(=O)[C@@H]2CCN2c2cc(N3CCC(CCNC(=O)NCCS(N)(=O)=O)CC3)nc(C(F)(F)F)n2)cc1 [Compound 269]
Result :: < 100 nM

Query :: Would you kindly share the measured EC50 for N#Cc1ccc(CCNC(=O)[C@@H]2CCCN2c2cc(-c3ccccc3)nc(C(F)(F)F)n2)cc1 [Compound 144] ?
Result :: 100 to 999 nM

----------
Study System: human TGR5 receptor (Homo sapiens)
Sequence (Q8TDU6 1-330): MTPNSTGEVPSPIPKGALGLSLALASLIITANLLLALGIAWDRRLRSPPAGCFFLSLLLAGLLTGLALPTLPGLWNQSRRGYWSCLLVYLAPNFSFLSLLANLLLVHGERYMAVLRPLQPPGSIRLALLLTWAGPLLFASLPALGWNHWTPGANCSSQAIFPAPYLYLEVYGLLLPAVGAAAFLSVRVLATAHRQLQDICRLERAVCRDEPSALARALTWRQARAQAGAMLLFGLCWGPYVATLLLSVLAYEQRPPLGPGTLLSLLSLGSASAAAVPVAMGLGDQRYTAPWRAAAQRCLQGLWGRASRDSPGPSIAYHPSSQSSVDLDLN
Test Method Notes: Human TGR5 cAMP production assay (hTGR5-CHO cells, DiscoveRx cAMP XS+ kit)
Measurement Context: luminescent cAMP assay, read-out: Human TGR5 Lum. cAMP Activity (EC50)
// EC50 lookup, one value per entry

Solved entries:
Query :: What value of EC50 has been reported for the following molecule? `N#Cc1ccc(CCNC(=O)[C@@H]2CCCN2c2cc(N3CCC(CCCC(=O)NCCS(=O)(=O)O)CC3)cc(C(F)(F)F)n2)cc1`
Result :: < 100 nM

Query :: Param item = `N#Cc1ccc(CCNC(=O)[C@@H]2CCCN2c2cc(N3CCC(CCCC(=O)N[C@H](CCCNC(=N)N)C(=O)N[C@H](CCC(=O)O)C(=O)O)CC3)nc(C(F)(F)F)n2)cc1` ; retrieve measured EC50.
Result :: < 100 nM

Continue with the molecule presented below.
Query :: EC50 lookup needed for `N#Cc1ccc(CCNC(=O)[C@@H]2CCCN2c2cc(-c3ccc(CCNC(=O)NCCS(=O)(=O)O)cc3)nc(C(F)(F)F)n2)cc1` , thanks.
Result :: 100 to 999 nM

----------
# maps each entry to its Cmax
Test Method Notes: Pharmacokinetic profile in mice after oral gavage
Type: in vivo, mouse
Measurement Context: mouse; fasted male Hilltop mice, 10 mg/kg oral gavage, plasma; read-out: Cmax
Return type: number; implicit unit ng/mL.

Below, 2 molecules whose answers are already recorded.
Query :: # get_value(readout='Cmax', item= N#Cc1ccc(CCNC(=O)[C@@H]2CCCN2c2cc(N3CCC(CCCC(=O)NCCS(N)(=O)=O)CC3)nc(C(F)(F)F)n2)cc1 [Compound 62] )
Result :: 33

Query :: Would you kindly share the measured Cmax for N=C(N)NCCC[C@H](NC(=O)CCCC1CCN(c2cc(N3CCC[C@H]3C(=O)NCCc3ccc(C(F)(F)F)cc3)nc(C(F)(F)F)n2)CC1)C(=O)O [Compound 74] ?
Result :: 3.6

Next:
Query :: Sample N#Cc1ccc(CCNC(=O)[C@@H]2CCCN2c2cc(N3CCC(CO)CC3)nc(C(F)(F)F)n2)cc1 [Compound 1] — what was its Cmax?
Result :: 233

Query :: Cmax lookup needed for N#Cc1ccc(CCNC(=O)[C@@H]2CCCN2c2cc(N3CCC(CCCC(=O)N[C@H](CCCNC(=N)N)C(=O)O)CC3)nc(C(F)(F)F)n2)cc1 [Compound 73] , thanks.
Result :: 2.8

Query :: What value of Cmax has been reported for the following molecule? N#Cc1ccc(CCNC(=O)[C@@H]2CCN2c2cc(N3CCC(CCNC(=O)NCCOCCNC(=O)CS(=O)(=O)O)CC3)nc(C(F)(F)F)n2)cc1 [Compound 356]
Result :: 8.4

Query :: # get_value(readout='Cmax', item= N#Cc1ccc(CCNC(=O)[C@@H]2CCCN2c2cc(N3CCC(CCCC(=O)O)CC3)nc(C(F)(F)F)n2)cc1 [Compound 29] )
Result :: 55

----------
Study System: UniProt:Q8TDU6
Test Method Notes: Human TGR5 cAMP production assay (hTGR5-CHO cells, DiscoveRx cAMP XS+ kit)
Measurement Context: luminescent cAMP assay, read-out: Human TGR5 Lum. cAMP Activity (EC50)
Readout Label: EC50

Query :: Consider the molecule shown here: `N#CCCN1CCN(c2cc(N3CC[C@H]3C(=O)NCCc3ccc(C#N)cc3)nc(C(F)(F)F)n2)CC1` What is its recorded EC50?
Result :: < 100 nM

// below: EC50 requested for another molecule
Query :: Item under review: `N[C@@H]1C[C@@H](C(=O)NCCc2ccc(C(F)(F)F)cc2)N(c2cc(N3CCC(CCNC(=O)NCCC(=O)O)CC3)nc(C(F)(F)F)n2)C1` . Reported EC50?
Result :: 1000 to 30000 nM
